- target-under-test: DRB1*0401 (DR0401) (Homo sapiens, UniProt P01903+P01911, A100K/A169T/F76Y/I96L/K127E/L162R/M171V/N62H/P40V/Q125Y/R42H/S133A/S149N/S66Y/V115G/V209L/W38E)
- assay-overview: HLA-DR peptide binding competition assay, DR0401
- settings: DR0401; concentration displacing 50% reference peptide; ± standard error of the mean; NB = no binding
pIC50: −log10 of the molar value. No end group written: not given here.
result-type: pIC50

[[record]]
sequence_record = "SYATNMFATWSP [FVIII2194-2205, F2196A]"
observed_result = "< 4.30"

